# targetOrTestSystem: T1, human Notch1 NRR_Avi_His recombinant protein (human, UniProt P46531 1434-1737)
# T1 construct: Secreted from CHO-PACE cells; cleaved at S1 into an N-terminal ~26 kDa half (LNR-A, B, C, HD1) and a C-terminal ~12 kDa half (HD2 and tag) that stay associated non-covalently; written here as one chain; also called recombinant human Notch1 NRR; human Notch1 NRR immunogen
# T1 sequence: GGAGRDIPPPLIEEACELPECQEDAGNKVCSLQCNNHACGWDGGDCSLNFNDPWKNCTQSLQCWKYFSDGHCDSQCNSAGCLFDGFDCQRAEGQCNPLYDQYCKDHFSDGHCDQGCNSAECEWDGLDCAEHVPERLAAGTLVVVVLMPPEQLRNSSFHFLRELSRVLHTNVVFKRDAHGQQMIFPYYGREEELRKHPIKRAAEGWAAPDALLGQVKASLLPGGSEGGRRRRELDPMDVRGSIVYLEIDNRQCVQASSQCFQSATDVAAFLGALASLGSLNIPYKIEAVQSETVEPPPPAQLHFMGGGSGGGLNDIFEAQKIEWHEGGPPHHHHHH
# procedureText: competition ELISA on coated human Notch1 NRR_Avi_His; competitor 0.8 nM biotinylated rat 438
So I've got a bunch of binders here, and I need their EC50 values.
Answers are plain numbers, in nM.

Known EC50 results, listed for orientation:
binder: rat 438-mIgG1 (antibody, V domains shown, also called r438-mIgG; Rat438-mlgG) VH: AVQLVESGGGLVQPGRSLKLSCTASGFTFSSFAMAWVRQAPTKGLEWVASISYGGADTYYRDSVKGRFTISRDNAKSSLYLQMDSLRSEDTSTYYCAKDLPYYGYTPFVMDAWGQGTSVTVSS VL: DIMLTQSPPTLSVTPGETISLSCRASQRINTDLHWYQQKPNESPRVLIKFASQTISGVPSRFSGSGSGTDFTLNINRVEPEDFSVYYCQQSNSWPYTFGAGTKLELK
valueUnit: nM
EC50: 1.5
//
binder: humanized 438 VH1.0/VL1.1 (antibody, human IgG1, V domains shown) VH: EVQLVESGGGLVQPGGSLRLSCAASGFTFSSFAMAWVRQAPGKGLEWVASISYGGADTYYRDSVKGRFTISRDNAKNSLYLQMNSLRAEDTAVYYCARDLPYYGYTPFVMDAWGQGTLVTVSS VL: DIQLTQSPSSLSASVGDRVTITCRASQRINTDLHWYQQKPGKAPKVLIKFASQTISGVPSRFSGSGSGTDFTLTISSLQPEDFATYYCQQSNSWPYTFGQGTKLEIK
valueUnit: nM
EC50: 0.7
//
binder: humanized 438 VH1.1/VL1.8 (antibody, human IgG1, kappa, V domains shown, full chains (VH1.1)-hIgG1-3M and (VL1.8)-hkappa) VH: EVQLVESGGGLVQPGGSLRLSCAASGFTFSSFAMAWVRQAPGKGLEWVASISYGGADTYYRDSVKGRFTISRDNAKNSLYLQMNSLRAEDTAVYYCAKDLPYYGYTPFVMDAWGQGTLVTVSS VL: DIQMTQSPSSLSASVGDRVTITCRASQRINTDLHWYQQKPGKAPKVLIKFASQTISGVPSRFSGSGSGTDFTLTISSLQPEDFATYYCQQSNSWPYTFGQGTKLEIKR
valueUnit: nM
EC50: 1.2

For the next question, use this binder.
For reference, reported EC50 for humanized 438 VH1.1/VL1.1 (antibody, human IgG1, V domains shown) VH: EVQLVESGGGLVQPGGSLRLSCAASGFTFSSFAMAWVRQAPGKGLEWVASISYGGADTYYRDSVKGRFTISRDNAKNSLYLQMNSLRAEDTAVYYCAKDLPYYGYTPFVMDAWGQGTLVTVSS VL: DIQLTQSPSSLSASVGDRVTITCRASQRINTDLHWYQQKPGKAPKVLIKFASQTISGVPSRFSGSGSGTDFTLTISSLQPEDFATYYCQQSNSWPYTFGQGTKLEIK stands at 0.6
